Reference source for all entries: ChEMBL document CHEMBL1152374

Listed here: items and their measured pIC50.
molecular target: Matrix metalloproteinase-14 (Homo sapiens, UniProt P50281); assay: Inhibition of human recombinant MT1-MMP expressed in Escherichia coli by fluorogenic peptide cleavage assay
// scale note: pIC50 = -log10(conc_M); give the bare number

Short answer for O=C(O[C@@H]1Cc2c(O)cc(O)cc2O[C@@H]1c1cc(O)c(O)c(O)c1)c1cc(O)c(O)c(O)c1 [EPIGALOCATECHIN GALLATE] : pIC50 was 5.17

***
Looking up COc1cc(C(=O)O[C@@H]2Cc3c(O)cc(O)cc3O[C@@H]2c2cc(O)c(O)c(O)c2)cc(O)c1O , I see its pIC50 listed as 5.77

Form: compound = COc1cc(C(=O)O[C@@H]2Cc3c(O)cc(O)cc3O[C@@H]2c2ccc(O)c(O)c2)cc(O)c1O ; pIC50 = 4.81

Reported pIC50 for COc1c(O)cc(C(=O)O[C@@H]2Cc3c(O)cc(O)cc3O[C@@H]2c2cc(O)c(O)c(O)c2)cc1O was 4.90

* * *

Measured IC50, listed per entry.
target: 72 kDa type IV collagenase (Homo sapiens, UniProt P08253); experiment: Inhibition of human recombinant MMP2 expressed in Escherichia coli by fluorogenic peptide cleavage assay
Sequence (P08253 whole entry): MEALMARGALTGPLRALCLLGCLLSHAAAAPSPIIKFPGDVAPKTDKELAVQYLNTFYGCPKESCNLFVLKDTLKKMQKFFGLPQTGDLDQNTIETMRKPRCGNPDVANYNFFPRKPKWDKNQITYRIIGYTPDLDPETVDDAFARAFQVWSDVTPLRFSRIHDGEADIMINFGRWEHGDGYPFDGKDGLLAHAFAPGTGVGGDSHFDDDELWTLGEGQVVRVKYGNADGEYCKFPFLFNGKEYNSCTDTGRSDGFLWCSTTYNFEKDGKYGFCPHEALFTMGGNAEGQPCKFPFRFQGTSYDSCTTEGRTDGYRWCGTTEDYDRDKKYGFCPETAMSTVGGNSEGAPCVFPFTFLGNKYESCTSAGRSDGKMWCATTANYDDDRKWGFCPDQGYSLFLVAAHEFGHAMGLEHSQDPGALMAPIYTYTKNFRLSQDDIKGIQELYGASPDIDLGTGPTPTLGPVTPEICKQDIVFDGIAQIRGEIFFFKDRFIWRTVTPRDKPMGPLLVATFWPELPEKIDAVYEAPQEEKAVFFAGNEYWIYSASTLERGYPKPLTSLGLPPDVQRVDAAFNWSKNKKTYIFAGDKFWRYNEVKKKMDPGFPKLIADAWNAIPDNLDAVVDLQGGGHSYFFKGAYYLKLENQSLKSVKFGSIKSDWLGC
Please reply with the bare figure in µM and do not write the unit itself.

Check out these entries, answers already filled in.
The measured IC50 associated with COc1c(O)cc(C(=O)O[C@H]2Cc3c(O)cc(O)cc3O[C@@H]2c2ccc(O)c(O)c2)cc1O reads 22

response.value for COc1cc(C(=O)O[C@@H]2Cc3c(O)cc(O)cc3O[C@@H]2c2ccc(O)c(O)c2)cc(O)c1O (field: IC50) = 88

Record COc1cc(C(=O)O[C@@H]2Cc3c(O)cc(O)cc3O[C@H]2c2cc(O)c(O)c(O)c2)cc(O)c1O . Reported IC50: 5.4

Documented IC50 of COc1cc(C(=O)O[C@H]2Cc3c(O)cc(O)cc3O[C@@H]2c2ccc(O)c(O)c2)cc(O)c1O : 28

Briefly, IC50 measured for O=C(O[C@@H]1Cc2c(O)cc(O)cc2O[C@@H]1c1cc(O)c(O)c(O)c1)c1cc(O)c(O)c(O)c1 [EPIGALOCATECHIN GALLATE] : 9.6

Noted for COc1c(O)cc(C(=O)O[C@@H]2Cc3c(O)cc(O)cc3O[C@H]2c2cc(O)c(O)c(O)c2)cc1O : its IC50 reads 19

Just so you know, measured IC50 for COc1c(O)cc(C(=O)O[C@@H]2Cc3c(O)cc(O)cc3O[C@@H]2c2ccc(O)c(O)c2)cc1O came out at 34

Entry under test: COc1c(O)cc(C(=O)O[C@@H]2Cc3c(O)cc(O)cc3O[C@@H]2c2cc(O)c(O)c(O)c2)cc1O . Its IC50 was 18.7

Now for a further molecule.
# IC50 of COc1cc(C(=O)O[C@@H]2Cc3c(O)cc(O)cc3O[C@@H]2c2cc(O)c(O)c(O)c2)cc(O)c1O = 8.7

* * *

Recorded IC50, one value per entry.
molecular target: Matrilysin (Homo sapiens, UniProt P09237); experiment: Inhibition of human recombinant MMP7 expressed in Escherichia coli by fluorogenic peptide cleavage assay
Sequence (P09237 whole entry): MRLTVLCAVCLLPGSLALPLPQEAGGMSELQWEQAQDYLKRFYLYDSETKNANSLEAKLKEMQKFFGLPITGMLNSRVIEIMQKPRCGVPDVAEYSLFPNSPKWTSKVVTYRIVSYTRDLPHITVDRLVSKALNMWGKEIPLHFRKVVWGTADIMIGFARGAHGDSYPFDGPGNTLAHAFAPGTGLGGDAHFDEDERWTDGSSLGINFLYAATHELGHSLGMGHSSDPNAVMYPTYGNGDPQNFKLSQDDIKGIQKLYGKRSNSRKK
Give your result in µM as a bare value.

These recorded examples may help you get a feel for the data.
Matrilysin (Homo sapiens, UniProt P09237) IC50 of O=C(O[C@@H]1Cc2c(O)cc(O)cc2O[C@@H]1c1cc(O)c(O)c(O)c1)c1cc(O)c(O)c(O)c1 [EPIGALOCATECHIN GALLATE] is 21.5

IC50 of COc1c(O)cc(C(=O)O[C@@H]2Cc3c(O)cc(O)cc3O[C@@H]2c2cc(O)c(O)c(O)c2)cc1O , assay on Matrilysin (Homo sapiens, UniProt P09237), is 72

Query COc1c(O)cc(C(=O)O[C@@H]2Cc3c(O)cc(O)cc3O[C@H]2c2cc(O)c(O)c(O)c2)cc1O on Matrilysin (Homo sapiens, UniProt P09237); IC50 returned: 32

Kindly note: Matrilysin (Homo sapiens, UniProt P09237), COc1cc(C(=O)O[C@@H]2Cc3c(O)cc(O)cc3O[C@H]2c2cc(O)c(O)c(O)c2)cc(O)c1O , IC50 value reported: 20

Others:
The measured IC50 that COc1cc(C(=O)O[C@@H]2Cc3c(O)cc(O)cc3O[C@@H]2c2cc(O)c(O)c(O)c2)cc(O)c1O showed for Matrilysin (Homo sapiens, UniProt P09237) is 20
